src = PubChem BioAssay (NCI)

# System: IGROV1 ovarian
# protocol summary: NCI-60 one-dose screen, 48 h (100 = growth as untreated, 0 = no growth, -100 = all killed)
# condition label: 10 µM unless noted
About 83,000 compounds went through this panel and 20% of them were active in at least one assay; those are over-represented in the sample as a whole. Activity calls are given as the source filed them. Rule for the calls: active = growth percent below 10; inactive = the rest.
Reported values of growth for individual entries
measured endpoint: growth

• Cc1ccc(NC2=C(Cl)C(=O)c3nc(C)ccc3C2=O)c(C)c1 = -58.8% (active)
• Cn1c(SCC(=O)c2ccc(F)cc2)nc2ccccc2c1=O = 88.7% (inactive)
• C=C(C)[C@@H]1CC[C@]2(C(=O)N3CCN(C)CC3)CC[C@]3(C)[C@H](CC[C@@H]4[C@@]5(C)CC[C@H](OP(=O)(OCC)OCC)C(C)(C)[C@@H]5CC[C@]43C)[C@@H]12 = 92.9% (inactive)
• Cc1[nH]c(C(=O)Nc2ccc(S(=O)(=O)N3CCCCC3)cc2OCCOCCOCCOCCOCCOCCOCCOCCOCCOc2cc(S(=O)(=O)N3CCCCC3)ccc2NC(=O)c2[nH]c(C)c3c2CCCCC3=O)c2c1C(=O)CCCC2 = 6.25% (active)
• CC(C)Sc1nc(-c2ccccc2)c(C#N)c(N2CCOCC2)n1 = 5.14% (active)
• CCCc1[nH]c(-c2cc(N)ccc2Cl)c2c1C(=O)CCCC2 = 91.6% (inactive)
• COc1ccc(/C=N\NC(=O)c2cnn(CC(O)c3ccccc3)c2N)cc1OCc1ccc(Cl)cc1 (stereo not drawn) = 91.9% (inactive)
• CCCCCc1ccc(S(=O)(=O)Nc2cc(-c3csc(N)n3)ccc2OC)cc1 = 84.5% (inactive)
• Cc1cc(C)cc(NC2=C(Cl)C(=O)c3nc(C)ccc3C2=O)c1 = -62.1% (active)
• CC(C)NC(=O)c1cc(-c2ccc(NC(=O)Nc3ccc(F)c(C(F)(F)F)c3)cc2)nc2cccnc12 = 110% (inactive)
• CC1CC(=O)C2=C(C1)Nc1ccc(Br)cc1CC2c1c[nH]c2ccc(Br)cc12 (stereo not drawn) = 32.9% (inactive)
• CCOC(=O)c1cnc2c(-c3ccc(Cl)c(Cl)c3)cnn2c1 = 79.1% (inactive)
• Cc1cc(Br)ccc1-n1cc(C#N)c(N)c1C(=O)c1ccc(Br)cc1 = 110% (inactive)
• C[C@H]1OCC2(CCN(c3cnc(C(=O)Nc4cc(F)cc5cccnc45)cn3)CC2)[C@H]1N = 20.1% (inactive)
• CCCC/C(=C\c1ccc(O)c(O)c1)C(=O)NC(Cc1ccccc1)C(=O)C(=O)NCCc1ccc(OC)cc1 (stereo not drawn) = 96.8% (inactive)
• CC(=O)N1N=C(c2cc3ccccc3oc2=O)CC1c1cn(-c2ccccc2)nc1-c1ccc(C)cc1 (stereo not drawn) = 108% (inactive)
• Clc1ccc2c(N/N=C/c3c[nH]c4ccccc34)ccnc2c1 = -87.2% (active)
• O=C(CCCCCCNC(=O)C(O)(O)C(F)(F)F)Nc1ncc(-c2ccccc2)s1 = -23.5% (active)
